Recorded absorption maximum values for a group of compounds are listed next.
test: solvent given as SMILES; details: in CS(C)=O

compound structure	absorption maximum [nm]
N#Cc1cc2ccccc2oc1=O	334
Oc1cccc(/N=C/c2ccccc2Oc2ccccc2)c1	329
Cc1cccc(-c2nc3sc4ccccc4c3s2)c1	348

* * *

Recorded absorption maximum values for a group of molecules are listed next.
assay: solvent given as SMILES; settings: in ClCCl

molecule	unit symbol	absorption maximum
Cc1cc(C)c(B(c2ccc(-c3ccc(-c4nc5c6ccccc6c6ccccc6c5[nH]4)cc3)cc2)c2c(C)cc(C)cc2C)c(C)c1	nm	371
CCN(CC)c1ccc2c(c1)oc(=O)c1c(=O)oc3cc(C#Cc4ccc(C#N)cc4)ccc3c12	nm	476
C(S/C=C/c1ccc(/C=C/SC=C2CCCC2)cc1)=C1CCCC1	nm	350
COC1=[N+]2C(=C(c3ccccc3)c3ccc(OC)n3[B-]2(F)F)C=C1SC#N	nm	515
COC(=O)C1=C(C(=O)OC)[Se](=O)[C@]23C1=C[C@H](c1ccccc12)c1ccccc13 (some centres undefined)	nm	341
COC(=O)/C=C/C1=CC2=C(c3c(C)cc(C)cc3C)c3cccn3[B-](F)(F)[N+]2=C1	nm	537
C(=C\c1cnc2ccccc2n1)/c1ccc(N(c2ccccc2)c2ccccc2)cc1	nm	427
Cc1cc(-c2ccccc2)cc(C)[o+]1	nm	343
COc1cccc(-c2[nH]c(=O)n3c2-c2ccccc2C3=O)c1O	nm	396

* * *

test: solvent given as SMILES; conditions: in CCO

molecule	absorption maximum / nm
CCCCC[n+]1ccc(/C=C/c2ccc(N(C)C)c3ccccc23)c2ccccc21	508
CC[N+](CC)=c1ccc2cc3c(oc-2c1)-c1ccc(N(C)C)cc1CC3	612
O=C(c1cc(F)c(N2CCOCC2)cc1F)c1cc(F)c(N2CCOCC2)cc1F	342
C(=C\c1ccc(N(c2ccccc2)c2ccccc2)cc1)/c1ccc(-c2cc(-c3ccccn3)nc(-c3ccccn3)c2)cc1	379
CCOc1ccc2c(-c3nc(-c4ccccc4Cl)no3)cc(=O)oc2c1	393
CC(C)[Si]1(C(C)C)c2cc(C#N)ccc2-c2ccc(N(C)C)cc21	360
C[n+]1c2c(c(-c3ccccc3)c3c1CCCC3)CCCC2	340.03
O=Cc1ccc(-c2cccc(-c3nc4ccccc4s3)c2O)s1	367
CCOC(=O)c1cc(C(=O)OCC)c2ccc(O)cc2n1	373
CC/[NH+]=c1\cc2oc3cc(NCCC(=O)NC(C(=O)OC)C(C)C)c4ccccc4c3nc-2cc1C (centres undefined)	590
Cc1c(C)n2c(COC(=O)c3ccccc3I)c(C)c(=O)n2c1=O	377
CN(C)c1ccc(/C=C/C=C2\CCCC2=O)cc1	422
F[B-]1(F)n2cccc2C=C2C=CC=[N+]21	498
CN(C)c1ccc(/C=C2/N=C(c3ccccc3)OC2=O)cc1	470
O=c1c2cc(F)c(N3CCCCC3)cc2oc2cc(N3CCCCC3)c(F)cc12	369
CCCCN1\C(=C/C=C/C=C/C2=[N+](CCCC)c3ccc4cc(Br)ccc4c3C2(C)C)C(C)(C)c2c1ccc1cc(Br)ccc21	688
COc1cnc(-c2cc[n+](C3=C(F)C(F)(F)C(F)(F)[C-]3F)cc2)s1	409
CC(C)Nc1cc2oc3cc(NC(C)C)c(F)cc3c(=O)c2cc1F	370
O=C1c2cccc3c(NCc4ccccn4)c4ccccc4c(c23)C(=O)N1Cc1ccccn1	533
C#Cc1ccc2cc3c(C)cc(=O)oc3cc2c1	334
CN(C)c1ccc(/C=C/C=C/c2nc3ccccc3o2)cc1	417
CCN(CC)c1ccc2cc(C#N)/c(=N\C(=O)C(C)C)oc2c1	422
N#CC(C#N)=Cc1ccc(-c2cccc(-c3nc4ccccc4s3)c2O)o1	421
CN(C)c1ccc(/C=C2\CCCC2=O)cc1	390
c1cnc(-c2c3ccccc3c(-c3ncccn3)c3ccccc23)nc1	389
COC1=C/C(=C\C=C2C=CN(Cc3ccc(Br)cc3)C=C2)C=CC1=O	568
CCCN1C(=O)C(=CC=CC=C2Oc3ccccc3N2CCCS(=O)(=O)[O-])C(=O)N(CCC)C1=S	558
NC(=O)CC[C@H](/[NH+]=C\C=C1\C=C(C(=O)O)N[C@H](C(=O)O)C1)C(=O)O	474
O=C(c1cc(F)c(N2CCCCC2)cc1F)c1cc(F)c(N2CCCCC2)cc1F	354
Cc1cc(O)c(C(C)C)cc1/N=C/c1ccc([N+](=O)[O-])cc1	402
CN(C)c1ccc(/C=C/C=C2\CC/C(=C\C=C\c3ccc(N(C)C)cc3)C2=O)cc1	510
CCCCOc1c(C=C2C=Cc3ccccc3N2C)c(=O)c1=O	465
COc1ccc2c(c1)-c1ccccc1C2=O	387
CCCCOc1ccc2cc(-c3ccc(C)cc3)c(=O)oc2c1	344

* * *

assay: solvent given as SMILES; settings: in CS(C)=O
Recorded absorption maximum values for a group of molecules are listed next.

compound structure	absorption maximum (nm)
c1ccc2c(c1)c1ccccc1c1[nH]c(-c3ccc(-c4nc5c6ccccc6c6ccccc6c5[nH]4)cc3)nc21	410
CCCCCCCC1=C(C)C(=O)n2c1cc1[nH]c(C(=O)OC)c(C)c1c2=O	397
COc1cccc2oc(-c3cc4c(OC)cccc4oc3=O)cc12	389
CCCCCCn1c2ccccc2c2cc(/C=C/c3cc(=O)oc4cc(C)ccc34)ccc21	405

* * *

assay: solvent given as SMILES; conditions: in ClC(Cl)Cl
Category | rule: reported absorption maximum within range, see L = under 400 nm, M = from 400 nm up to 500 nm, H = 500 nm and over

molecule	assigned category
CCCCCCC(CCCCCC)N1C(=O)c2cccc3c(-c4ccc([Si](C)(C)C)cc4)ccc(c23)C1=O	L
CCCCn1c2ccccc2c2ccc3c4cc(-c5ccc(OC)cc5)ccc4n(CCCC)c3c21	L
CCCCN1c2ccccc2Sc2cc(/C=C\c3cc(=O)oc4cc(C)ccc34)ccc21	M
CC(C)(C)c1ccc2c(c1)c1cc(C(C)(C)C)ccc1n2-c1ccc(C#Cc2cccc(C#Cc3ccc(-n4c5ccc(C(C)(C)C)cc5c5cc(C(C)(C)C)ccc54)cc3)c2)cc1	L
COc1cnc(-c2cc[n+](C3=C(F)C(F)(F)C(F)(F)[C-]3F)cc2)s1	M
CCCCCCCCCCOc1cc(OCCCCCCCCCC)cc(C2=C3C(/C=C/c4ccc(OC)cc4)=CC(/C=C/c4ccc(OC)cc4)=[N+]3[B-](F)(F)n3c(/C=C/c4ccc(OC)cc4)cc(C=Cc4ccc(OC)cc4)c32)c1	H
CCCCCCc1ccc(-n2c3c4cccc(OC)c4nc(-c4ccc(C)cc4)c3c3c2c2c(-c4ccc(C)cc4)nc4c(OC)cccc4c2n3-c2ccc(CCCCCC)cc2)cc1	L
CN1C(=CC2=C([O-])C(=Cc3oc4ccccc4[n+]3C)C2=C(C#N)C#N)Sc2ccccc21	H
c1ccc2c(c1)-c1ccccc1C21c2cc(-c3ccc4ccc5cccc6ccc3c4c56)ccc2-c2ccc(-c3ccc4ccc5cccc6ccc3c4c56)cc21	L
Cc1cccc(Nc2ccccc2C(=O)O)c1C	L
CCCCn1c2ccc(-c3ccc(C(F)(F)F)cc3)cc2c2ccc3c4cc(-c5ccc(C(F)(F)F)cc5)ccc4n(CCCC)c3c21	L
CN(C)c1[se]c(-c2ccccc2)nc1-c1ccccc1	L
Cc1c2oc3c(C)c(N)cc(C(=O)NC4OC(=O)C(C(C)C)N(C)C(=O)CN(C)C(=O)C5CCCN5C(=O)C(C(C)C)NC4=O)c3nc-2c(C(=O)NC2OC(=O)C(C(C)C)N(C)C(=O)CN(C)C(=O)C3CCCN3C(=O)C(C(C)C)NC2=O)c(N)c1=O (configuration not stated)	H
CN(C)c1ccc2nc(/C=C/c3cc4c5c(c3)CCCN5CCC4)c(=O)oc2c1	H
CCCCCCCCCCCC#CC#CCCCCCCCCCN1C(=O)c2ccc3c4ccc5c6c(ccc(c7ccc(c2c37)C1=O)c64)C(=O)N(CCCCCCCCCC#CC#CCCCCCCCCCCCC)C5=O	H
CCN(CC)c1ccc2cc(-c3cc(SC)c(C#N)c(=O)o3)c(=O)oc2c1	H
CC(C)(C)c1ccc2c(c1)c1cc(C(C)(C)C)ccc1n2-c1ccc(-c2nc(-c3ccc(-n4c5ccc(C(C)(C)C)cc5c5cc(C(C)(C)C)ccc54)cc3)nc(-c3ccc(P(=O)(c4ccccc4)c4ccccc4)cc3)n2)cc1	M
CCCCCCC(CCCCCC)N1C(=O)c2cccc3c(-c4ccc(-c5ccc(OC)cc5)cc4)ccc(c23)C1=O	L
Cc1ccc(-n2c3ccc(-c4ccc(-c5nc6ccccc6n5-c5ccccc5)cc4)cc3c3cc(-c4ccc(-c5nc6ccccc6n5-c5ccccc5)cc4)ccc32)cc1	L

* * *

Recorded absorption maximum values for a group of molecules are listed next.
assay: solvent given as SMILES; conditions: in CCCO

molecule	absorption maximum, nm
CN(C)c1ccc(/C=C2\CCCC2=O)cc1	394
Cc1c2oc3c(C)c(N)cc(C(=O)NC4OC(=O)C(C(C)C)N(C)C(=O)CN(C)C(=O)C5CCCN5C(=O)C(C(C)C)NC4=O)c3nc-2c(C(=O)NC2OC(=O)C(C(C)C)N(C)C(=O)CN(C)C(=O)C3CCCN3C(=O)C(C(C)C)NC2=O)c(N)c1=O (stereo not given)	533.23
CN(C)c1ccc(/C=C/C=C/c2nc3ccccc3o2)cc1	417
CCN(CC)c1ccc2cc(-c3ccc(S(C)(=O)=O)cc3)oc(=O)c2c1	378
C(=C\c1cccc2ccccc12)/c1ccc(-c2nnc(-c3ccc(-c4cc5ccccc5s4)cc3)o2)cc1	342
